Entry source: ChEMBL document CHEMBL4689842

Each item that follows carries a reported Population Normal (%).
System: HEK-293T
Experiment: Multiplex assay against HEK293T
Format: toxicity, cell-based
Conditions: human, 12 h, 1 µM, compound concentration 1 uM, replicate 1

| molecule | measurement.units | Population Normal (%) |
| --- | --- | --- |
| CCCS(=O)(=O)Nc1ccc(F)c(C(=O)c2c[nH]c3ncc(Cl)cc23)c1F | % | 88 |
| CCNc1cc(N[C@H]2CC[C@H](O)CC2)nc(Nc2ccc3c(ccn3Cc3ccccc3)c2)n1 | % | 89 |
| NC(=O)c1cccc(-c2cc(Nc3ccc(OC(F)(F)F)cc3)ncn2)c1 | % | 92 |
| Cc1ccc(C(=O)Nc2cccc(C(F)(F)F)c2)cc1Nc1nc(-c2cccnc2)nc2c1cnn2C | % | 80 |
| CCOc1cc(C(=O)N2CCC(N3CCN(C)CC3)CC2)ccc1Nc1ncc2c(n1)N(C1CCCC1)c1ccccc1C(=O)N2C | % | 81 |
| Cc1cn(-c2cc(NC(=O)c3ccc(C)c(Nc4nccc(-c5cccnc5)n4)c3)cc(C(F)(F)F)c2)cn1 | % | 82 |
| CCCS(=O)(=O)c1nc(NC2CC2)cc(-c2ccc3c(ccn3C3CC(C)(C)NC(C)(C)C3)c2)n1 | % | 86 |
| CCN1CCN(c2ccc(Nc3cc(N(C)C(=O)Nc4c(Cl)c(OC)cc(OC)c4Cl)ncn3)cc2)CC1 | % | 80 |
| COc1ccc(-c2ccc3c(N4CCOCC4)nc(N4C[C@@H](C)O[C@@H](C)C4)nc3n2)cc1CO | % | 79 |
| CCn1c(=O)c(-c2ccc(-c3cncs3)cc2Cl)cc2cnc(Nc3ccc(N4CCN(C)CC4)cc3)nc21 | % | 85 |
| Cl.O=C(c1ccc(Nc2nccc(-c3cc4ccccc4s3)n2)cc1)N1CCC(N2CCCC2)CC1 | % | 91 |
| Cl.O=c1c2cccn2c2ccccc2n1CCCN1CCC(c2ccc(Cl)cc2)CC1 | % | 89 |
| O=C(Nc1ccc(-c2ccnc(Nc3ccc(N4CCOCC4)cc3)n2)cc1)[C@@H]1CCCN1 | % | 88 |
| COc1ccc(S(=O)(=O)N(CCO)c2ccccc2CN(C)C/C=C/c2ccc(Cl)cc2)cc1.O=P(O)(O)O | % | 83 |
| S=C(NCCCc1c[nH]cn1)NCCCN(Cc1ccc(Cl)c(Cl)c1)c1ccc(Br)cn1 | % | 88 |
| O=C(Nc1ccc(Cl)cc1)Nc1cccc(-c2cccc(N3CCCC3)n2)c1 | % | 87 |
| CCOc1cc2ncc(C#N)c(Nc3ccc(OCc4ccccn4)c(Cl)c3)c2cc1NC(=O)/C=C/CN(C)C | % | 79 |

---

System: HEK-293T
Experiment: Multiplex assay against HEK293T
Assay type: toxicity, cell-based
Details: human, 12 h, 1 µM, compound concentration 1 uM, replicate 1
Rule: measured Population Apoptotic (%) below 50% gets Criterion met; anything equal to or greater than 50% gets Criterion not met.

| molecule | measured.target | answer.label |
| --- | --- | --- |
| Cl.Oc1ccc2c3c1O[C@H]1c4[nH]c5c(c4C[C@@]4(O)[C@@H](C2)N(CC2CC2)CC[C@]314)C[C@@]1(O)[C@H]2Cc3ccc(O)c4c3[C@@]1(CCN2CC1CC1)[C@H]5O4 | HEK-293T | Criterion met |
| CN(C)C(=O)C(CCN1CCC(O)(c2ccc(Cl)cc2)CC1)(c1ccccc1)c1ccccc1.Cl [LOPERAMIDE HYDROCHLORIDE] | HEK-293T | Criterion not met |
| O=C1N/C(=N/c2ccccc2F)S/C1=C\c1ccc(C(=O)O)cc1 | HEK-293T | Criterion met |
| CCN1CCN(Cc2ccc(Nc3ncc(F)c(-c4cc(F)c5nc(C)n(C(C)C)c5c4)n3)nc2)CC1.CS(=O)(=O)O | HEK-293T | Criterion not met |
| O=C(Cc1ccc(-c2ccc(OCCN3CCOCC3)cc2)cn1)NCc1ccccc1 | HEK-293T | Criterion met |
| CN[C@@H]1C[C@H]2O[C@@](C)([C@@H]1OC)n1c3ccccc3c3c4c(c5c6ccccc6n2c5c31)C(=O)NC4 | HEK-293T | Criterion met |
| O=C(Nc1ccc(-n2nc(-c3cccnc3)cc2C(F)(F)F)cn1)c1ccc(-c2ccccc2)c(F)c1 | HEK-293T | Criterion met |
